Form field: Percentage of the compound remaining in plasma (one value per entry).
- testDetails: Stability in human plasma
- condition: 37° C., 120 minutes
observedProperty: Percentage of the compound remaining in plasma (%)

>>> recordednumber("CC1CN(C(=O)OCOc2ccc([N+](=O)[O-])c3cccnc23)CCO1 (stereo not shown)")
92.7
>>> recordednumber("CCC(CC)C(=O)OCOc1ccc([N+](=O)[O-])c2cccnc12")
1.6
>>> recordednumber("O=C(OCOc1ccc([N+](=O)[O-])c2cccnc12)N1CCOCC1")
105.2
>>> recordednumber("CCC(C)C(NC(=O)OCOc1ccc([N+](=O)[O-])c2cccnc12)C(=O)OC (stereo not shown)")
68.7
>>> recordednumber("CC(C)(C)C(=O)OCOc1ccc([N+](=O)[O-])c2cccnc12 [Compound 4, (5-nitroquinolin-8-yloxy)methyl pivalate]")
31.4
>>> recordednumber("COC(=O)[C@H](Cc1ccccc1)NC(=O)OCOc1ccc([N+](=O)[O-])c2cccnc12")
21.6
>>> recordednumber("CN(CC(O)CO)C(=O)OCOc1ccc([N+](=O)[O-])c2cccnc12 (stereo not shown)")
83.3
>>> recordednumber("CC(C)OC(=O)[C@H](C)NP(=O)(OCOc1ccc([N+](=O)[O-])c2cccnc12)Oc1ccccc1 (stereo partly shown)")
65.5
>>> recordednumber("O=[N+]([O-])c1ccc(O)c2ncccc12")
91.6
>>> recordednumber("CCC(CC)C(=O)OC(C)Oc1ccc([N+](=O)[O-])c2cccnc12 (stereo not shown)")
84.6
>>> recordednumber("COC(=O)CN(C)C(=O)Oc1ccc([N+](=O)[O-])c2cccnc12")
60.2
>>> recordednumber("CCC(C)C(C(=O)OC)N(C)C(=O)OCOc1ccc([N+](=O)[O-])c2cccnc12 (stereo not shown)")
93.2
>>> recordednumber("CC(C)(C)OP(=O)(OCOc1ccc([N+](=O)[O-])c2cccnc12)OC(C)(C)C")
74.4
>>> recordednumber("CCC(NC(=O)OCOc1ccc([N+](=O)[O-])c2cccnc12)C(=O)OC (stereo not shown)")
71.9
>>> recordednumber("C[C@@H]1CN(C(=O)OCOc2ccc([N+](=O)[O-])c3cccnc23)C[C@H](C)O1")
100.3
>>> recordednumber("CN1CCN(C(=O)OCOc2ccc([N+](=O)[O-])c3cccnc23)CC1")
99.3

---

- testDetails: Stability in rat liver microsome
- condition: without coenzyme, 2 μM, 37° C., 30 minutes
observedProperty: Percentage of the compound remaining in rat liver microsome (%)

>>> recordednumber("CN(CC(=O)OCc1cccnc1N(C)C(=O)OCOc1ccc([N+](=O)[O-])c2cccnc12)C(=O)C(C)(C)C [Compound 66]")
12.10
>>> recordednumber("CN1CCN(C(=O)OCOc2ccc([N+](=O)[O-])c3cccnc23)CC1 [Compound 6]")
99.73
>>> recordednumber("CC(C)(C)OC(=O)N[C@@H](Cc1ccccc1)C(=O)OCOc1ccc([N+](=O)[O-])c2cccnc12 [Compound 13]")
0.02
>>> recordednumber("CCC(C)C(NC(=O)OCOc1ccc([N+](=O)[O-])c2cccnc12)C(=O)OC (centres unmarked) [Compound 55]")
52.76
>>> recordednumber("CCC(=O)OCOc1ccc([N+](=O)[O-])c2cccnc12 [Compound 2]")
0.45
>>> recordednumber("CCC(NC(=O)OCOc1ccc([N+](=O)[O-])c2cccnc12)C(=O)OC (centres unmarked) [Compound 54]")
13.97
>>> recordednumber("CC(OC(=O)C(C)C)Oc1ccc([N+](=O)[O-])c2cccnc12 (centres unmarked) [Compound 49]")
0.03
>>> recordednumber("CN(C)C(=O)Oc1ccc([N+](=O)[O-])c2cccnc12 [Compound 78, 5-nitroquinolin-8-yl dimethylcarbamate]")
91.50

---

- testDetails: Stability in mouse liver microsome
- Type: in vitro ADME
- condition: without coenzyme, 2 μM, 37° C., 30 minutes
observedProperty: Percentage of the compound remaining in mouse liver microsome (%)

>>> recordednumber("O=C(OCOc1ccc([N+](=O)[O-])c2cccnc12)N1CCOCC1")
82.50
>>> recordednumber("CN1CCN(C(=O)OCOc2ccc([N+](=O)[O-])c3cccnc23)CC1")
116.52
>>> recordednumber("CCC(NC(=O)OCOc1ccc([N+](=O)[O-])c2cccnc12)C(=O)OC (stereo not shown)")
31.90
>>> recordednumber("CC(=O)N(C)CC(=O)OCc1cccnc1N(C)C(=O)OCOc1ccc([N+](=O)[O-])c2cccnc12")
2.63
>>> recordednumber("CCC(CC)C(=O)OC(C)Oc1ccc([N+](=O)[O-])c2cccnc12 (stereo not shown)")
0.09
>>> recordednumber("CC(C)C(=O)N1CCC[C@H]1C(=O)OCOc1ccc([N+](=O)[O-])c2cccnc12")
49.07
>>> recordednumber("COC(=O)CN(C)C(=O)Oc1ccc([N+](=O)[O-])c2cccnc12")
76.69
>>> recordednumber("CCC(C)C(NC(=O)OCOc1ccc([N+](=O)[O-])c2cccnc12)C(=O)OC (stereo not shown)")
90.39
>>> recordednumber("CCCOC(=O)N1CCC[C@H]1C(=O)OCOc1ccc([N+](=O)[O-])c2cccnc12")
0.00
>>> recordednumber("CCC(=O)OCOc1ccc([N+](=O)[O-])c2cccnc12")
0.02
>>> recordednumber("CC(=O)OCOc1ccc([N+](=O)[O-])c2cccnc12 [Compound 1, (5-nitroquinolin-8-yloxy)methyl acetate]")
0.27
>>> recordednumber("CC(OC(=O)C(C)C)Oc1ccc([N+](=O)[O-])c2cccnc12 (stereo not shown)")
0.03
>>> recordednumber("CN(C)C(=O)Oc1ccc([N+](=O)[O-])c2cccnc12 [Compound 78, 5-nitroquinolin-8-yl dimethylcarbamate]")
100.18

---

- testDetails: Determination of water solubility in phosphate buffer
- Type: physicochemical
- condition: simulated gastric fluid, thermodynamic from solid; phosphate buffer pH 1.2, room temperature, 24 hours
Please use Condition met whenever solubility at 24 h is not below 300 µg/mL, and Condition not met whenever it is.

>>> classassignment("CC(C)(C)OP(=O)(OCOc1ccc([N+](=O)[O-])c2cccnc12)OC(C)(C)C [Compound 70]")
"Condition met"
>>> classassignment("CCC(CC)C(=O)OCOc1ccc([N+](=O)[O-])c2cccnc12 [Compound 5]")
"Condition not met"
>>> classassignment("CC(=O)N[C@@H](CO)C(=O)N1CCC[C@H]1C(=O)OCOc1ccc([N+](=O)[O-])c2cccnc12 [Compound 30]")
"Condition met"
>>> classassignment("CSC[C@H](NC(C)=O)C(=O)OCOc1ccc([N+](=O)[O-])c2cccnc12 [Compound 16]")
"Condition met"
>>> classassignment("CC(C)C(=O)N1CCC[C@@H]1C(=O)OCOc1ccc([N+](=O)[O-])c2cccnc12 [Compound 23]")
"Condition met"
>>> classassignment("CC(C)(C)C(=O)N1CCC[C@@H]1C(=O)OCOc1ccc([N+](=O)[O-])c2cccnc12 [Compound 24]")
"Condition met"
>>> classassignment("CC(C)C(=O)N1CCC[C@H]1C(=O)OCOc1ccc([N+](=O)[O-])c2cccnc12 [Compound 20]")
"Condition met"
>>> classassignment("CC(=O)N[C@@H](Cc1ccc(O)cc1)C(=O)N1CCC[C@H]1C(=O)OCOc1ccc([N+](=O)[O-])c2cccnc12 [Compound 28]")
"Condition met"
>>> classassignment("CCC(CC)C(=O)OC(C)Oc1ccc([N+](=O)[O-])c2cccnc12 (stereo not drawn) [Compound 51]")
"Condition not met"

---

- testDetails: Stability in mouse liver microsome
- Assay type: in vitro ADME
- condition: without coenzyme, 2 μM, 37° C., 30 minutes
Mark 1 for Percentage of the compound remaining in mouse liver microsome under 0.05%, -1 if at or over.

>>> classassignment("COC(=O)CNC(=O)OCOc1ccc([N+](=O)[O-])c2cccnc12")
-1
>>> classassignment("CCC(C)C(C(=O)OC)N(C)C(=O)OCOc1ccc([N+](=O)[O-])c2cccnc12 (centres unmarked)")
-1
>>> classassignment("CC(C)C(=O)OCOc1ccc([N+](=O)[O-])c2cccnc12")
1
>>> classassignment("CN(CC(O)CO)C(=O)OCOc1ccc([N+](=O)[O-])c2cccnc12 (centres unmarked)")
-1
>>> classassignment("CCC(CC)C(=O)OCOc1ccc([N+](=O)[O-])c2cccnc12")
-1
>>> classassignment("CN(CC(=O)OCc1cccnc1N(C)C(=O)OCOc1ccc([N+](=O)[O-])c2cccnc12)C(=O)C(C)(C)C")
-1
>>> classassignment("CC(=O)OC(C)Oc1ccc([N+](=O)[O-])c2cccnc12 (centres unmarked) [Compound 47, 1-(5-nitroquinolin-8-yloxy)ethyl acetate]")
1

---

Form field: Percentage of the compound remaining in mouse liver microsome (one value per entry).
- testDetails: Stability in mouse liver microsome
- Format: in vitro ADME
- condition: with coenzyme, 2 μM, 37° C., 30 minutes
observedProperty: Percentage of the compound remaining in mouse liver microsome (%)

>>> recordednumber("CC(OC(=O)C(C)C)Oc1ccc([N+](=O)[O-])c2cccnc12 (stereo not drawn)")
0.01
>>> recordednumber("CCC(=O)OCOc1ccc([N+](=O)[O-])c2cccnc12")
0.10
>>> recordednumber("CN(C)C(=O)Oc1ccc([N+](=O)[O-])c2cccnc12 [Compound 78, 5-nitroquinolin-8-yl dimethylcarbamate]")
0.00
>>> recordednumber("CC(=O)N(C)CC(=O)OCc1cccnc1N(C)C(=O)OCOc1ccc([N+](=O)[O-])c2cccnc12")
0.72
>>> recordednumber("CN(CC(O)CO)C(=O)OCOc1ccc([N+](=O)[O-])c2cccnc12 (stereo not drawn)")
95.16
>>> recordednumber("CC(C)C(=O)OCOc1ccc([N+](=O)[O-])c2cccnc12")
0.01
>>> recordednumber("CCCOC(=O)N1CCC[C@H]1C(=O)OCOc1ccc([N+](=O)[O-])c2cccnc12")
0.26
>>> recordednumber("O=C(OCOc1ccc([N+](=O)[O-])c2cccnc12)N1CCOCC1")
55.15
>>> recordednumber("CCC(=O)OC(C)Oc1ccc([N+](=O)[O-])c2cccnc12 (stereo not drawn)")
0.03
>>> recordednumber("CC(C)C(=O)N1CCC[C@H]1C(=O)OCOc1ccc([N+](=O)[O-])c2cccnc12")
0.09
>>> recordednumber("CN1CCN(C(=O)OCOc2ccc([N+](=O)[O-])c3cccnc23)CC1")
51.08
>>> recordednumber("CCC(CC)C(=O)OCOc1ccc([N+](=O)[O-])c2cccnc12")
0.44
>>> recordednumber("COC(=O)CN(C)C(=O)Oc1ccc([N+](=O)[O-])c2cccnc12")
5.57
>>> recordednumber("CCC(C)C(NC(=O)OCOc1ccc([N+](=O)[O-])c2cccnc12)C(=O)OC (stereo not drawn)")
2.01
>>> recordednumber("CN(CC(=O)OCc1cccnc1N(C)C(=O)OCOc1ccc([N+](=O)[O-])c2cccnc12)C(=O)C(C)(C)C")
0.02
>>> recordednumber("CC(=O)OCOc1ccc([N+](=O)[O-])c2cccnc12 [Compound 1, (5-nitroquinolin-8-yloxy)methyl acetate]")
0.16
>>> recordednumber("CC(=O)OC(C)Oc1ccc([N+](=O)[O-])c2cccnc12 (stereo not drawn) [Compound 47, 1-(5-nitroquinolin-8-yloxy)ethyl acetate]")
0.04
>>> recordednumber("CCC(NC(=O)OCOc1ccc([N+](=O)[O-])c2cccnc12)C(=O)OC (stereo not drawn)")
9.85
>>> recordednumber("CCC(C)C(C(=O)OC)N(C)C(=O)OCOc1ccc([N+](=O)[O-])c2cccnc12 (stereo not drawn)")
0.44
>>> recordednumber("CCC(CC)C(=O)OC(C)Oc1ccc([N+](=O)[O-])c2cccnc12 (stereo not drawn)")
0.02
>>> recordednumber("COC(=O)CNC(=O)OCOc1ccc([N+](=O)[O-])c2cccnc12")
32.13

Data provenance is patent US12152048B2.
